# Ki against Macrophage colony-stimulating factor 1 receptor (Homo sapiens, UniProt P07333), merged from multiple literature sources
# Sequence (P07333 whole entry): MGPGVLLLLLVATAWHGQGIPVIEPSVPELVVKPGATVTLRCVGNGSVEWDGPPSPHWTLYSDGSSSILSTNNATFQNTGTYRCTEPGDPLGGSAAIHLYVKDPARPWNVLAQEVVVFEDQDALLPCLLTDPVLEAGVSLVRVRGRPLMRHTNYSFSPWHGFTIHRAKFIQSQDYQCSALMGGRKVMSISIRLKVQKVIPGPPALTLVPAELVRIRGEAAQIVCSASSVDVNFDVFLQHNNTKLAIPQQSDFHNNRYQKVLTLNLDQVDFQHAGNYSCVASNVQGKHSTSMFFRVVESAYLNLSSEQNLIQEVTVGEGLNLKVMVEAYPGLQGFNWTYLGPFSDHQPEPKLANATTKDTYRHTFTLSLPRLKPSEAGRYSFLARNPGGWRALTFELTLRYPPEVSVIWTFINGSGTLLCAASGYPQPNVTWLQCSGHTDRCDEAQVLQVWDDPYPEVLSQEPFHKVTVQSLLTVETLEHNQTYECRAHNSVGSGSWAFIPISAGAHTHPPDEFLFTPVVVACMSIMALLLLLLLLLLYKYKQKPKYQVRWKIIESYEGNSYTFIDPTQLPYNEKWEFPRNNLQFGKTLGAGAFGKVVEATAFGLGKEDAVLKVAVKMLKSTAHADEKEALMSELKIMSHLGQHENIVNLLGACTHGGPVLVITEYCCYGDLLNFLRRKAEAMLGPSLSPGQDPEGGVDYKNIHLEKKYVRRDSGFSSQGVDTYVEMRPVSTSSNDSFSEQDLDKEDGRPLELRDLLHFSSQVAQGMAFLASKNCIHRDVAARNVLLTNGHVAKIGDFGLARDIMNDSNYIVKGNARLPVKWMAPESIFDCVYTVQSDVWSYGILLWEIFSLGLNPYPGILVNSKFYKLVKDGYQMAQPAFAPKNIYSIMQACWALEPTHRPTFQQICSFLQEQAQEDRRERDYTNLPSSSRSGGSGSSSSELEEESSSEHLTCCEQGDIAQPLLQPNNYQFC
State the answer as a number, implicitly in µM.

// below: answered compounds
Smiles Representation: Nc1ncc(-c2cc3ccccc3o2)c(N2CCC3(CCNC3=O)CC2)c1Cl
U: µM
Observed Value: 0.166
--
Smiles Representation: CCOc1cc2ccc(C(N)=O)c(Nc3ccc(F)cc3F)c2cc1N1CCN([11CH3])CC1
U: µM
Observed Value: 0.008

Continue with the compound presented below.
State its Ki for this compound: `COc1ccc(Oc2nc(Nc3ccc(N4CCOCC4)nc3)ncc2NC(=O)c2cc(OC)cc(OC)c2)cc1` 0.129
